Ref: PubChem BioAssay AID493087

molecular target: Insulin-degrading enzyme (Homo sapiens) (UniProt P14735); assay: human IDE activators in live cells, primary screen, fluorescence polarization, HEK cells, FAbeta-B substrate (AID 493087); details: FAbeta-B cleavage, at 5.96 µM, 0% vehicle, 100% cell-free pure enzyme wells
Sequence (P14735 whole entry, looked up): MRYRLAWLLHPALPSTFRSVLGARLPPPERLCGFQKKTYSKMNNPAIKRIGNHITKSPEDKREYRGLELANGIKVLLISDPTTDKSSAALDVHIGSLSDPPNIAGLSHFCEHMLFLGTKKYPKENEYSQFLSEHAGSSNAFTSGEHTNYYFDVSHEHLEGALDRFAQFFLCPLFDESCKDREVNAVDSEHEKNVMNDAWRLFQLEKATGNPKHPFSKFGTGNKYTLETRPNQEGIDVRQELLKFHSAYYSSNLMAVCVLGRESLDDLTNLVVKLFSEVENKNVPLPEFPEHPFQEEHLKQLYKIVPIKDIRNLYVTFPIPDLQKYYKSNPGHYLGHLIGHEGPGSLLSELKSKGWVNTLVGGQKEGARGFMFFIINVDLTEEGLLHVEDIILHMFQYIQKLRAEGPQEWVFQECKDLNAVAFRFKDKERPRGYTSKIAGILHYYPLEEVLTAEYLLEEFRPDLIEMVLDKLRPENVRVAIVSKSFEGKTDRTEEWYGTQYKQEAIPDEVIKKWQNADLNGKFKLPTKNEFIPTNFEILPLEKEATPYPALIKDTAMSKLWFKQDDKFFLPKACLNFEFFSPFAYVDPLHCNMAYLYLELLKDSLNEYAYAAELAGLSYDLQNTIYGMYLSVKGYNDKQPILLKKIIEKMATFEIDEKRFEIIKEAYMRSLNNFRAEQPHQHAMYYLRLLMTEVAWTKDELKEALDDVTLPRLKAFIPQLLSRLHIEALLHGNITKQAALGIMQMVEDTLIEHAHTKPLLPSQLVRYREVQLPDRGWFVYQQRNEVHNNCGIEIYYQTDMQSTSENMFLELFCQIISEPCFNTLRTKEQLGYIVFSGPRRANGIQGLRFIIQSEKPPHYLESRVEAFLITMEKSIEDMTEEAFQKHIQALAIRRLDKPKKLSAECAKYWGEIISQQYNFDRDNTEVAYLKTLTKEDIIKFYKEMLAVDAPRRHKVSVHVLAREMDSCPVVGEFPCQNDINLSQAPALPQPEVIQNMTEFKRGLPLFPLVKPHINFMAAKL
The whole screen tested about 340,000 compounds, of which about 240 (0.071%) were called active.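 How the source made its calls: active means activation above the mean of all tested compounds plus 3 SD, set per screening campaign (cut at about 17% in these data); inactive means the rest.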 The entries come from a sample that favours actives as a whole.
Choose the fitting class; nothing outside active, inactive is accepted.

Reference set, count: 6
{"molecule": "CC(C)(C)C1C/C(=C/c2ccco2)C(=O)/C(=C/c2ccco2)C1 (centres undefined)", "qualitative.label": "inactive"}
{"molecule": "CCC(=O)NNc1cc(=O)c2c(=O)n(C)c(=O)n(C)c2[nH]1", "qualitative.label": "inactive"}
{"molecule": "Cc1ccc(O)c(NC(=S)NC(=O)COc2ccc(Br)cc2)c1", "qualitative.label": "active"}
{"molecule": "CCCCSCCCNC(=O)C1CCC(CNS(=O)(=O)c2ccc(NC(C)=O)cc2)CC1 (centres undefined)", "qualitative.label": "inactive"}
{"molecule": "COC(=O)C1=CN(Cc2ccc(OC)cc2)C=C(C(=O)OC)C1c1ccc(O)c(OC)c1", "qualitative.label": "inactive"}
{"molecule": "CC(=O)c1ccc(N2CCN(CC(O)c3ccccc3)CC2)cc1 (centres undefined)", "qualitative.label": "inactive"}

## Input Hi, sorry to bother you, what did the test record for `O=S(=O)(c1ccc2ccccc2c1)N1CCN(S(=O)(=O)N2CCOCC2)CC1` ?
## Output inactive

## Input Hi, sorry to bother you, what did the test record for `COC(=O)COc1ccc2c(=O)c(Oc3ccccc3Br)coc2c1` ?
## Output inactive

## Input Hi, sorry to bother you, what did the test record for `Cc1ccc(S(=O)(=O)N2C[C@@H]3CCCC[C@@H]3[C@@H](C)[C@H]2c2cn(Cc3ccccc3)c3ccc(F)cc23)cc1` ?
## Output inactive

## Input Hi, sorry to bother you, what did the test record for Cc1ccc(CNC(=O)C2CCN(S(=O)(=O)c3ccc4nc5c(c(C(=O)O)c4c3)CC(C)CC5)CC2)cc1 (centres undefined) ?
## Output inactive

## Input Hi, sorry to bother you, what did the test record for CCN(CC)CCCC(C)n1c2nc(=O)[nH]c(=O)c-2nc2cc(Cl)ccc21 (centres undefined) ?
## Output active

## Input Hi, sorry to bother you, what did the test record for `COc1ccc(C(=O)Nc2cc(C)ccc2NC(=O)COc2ccccc2)cc1` ?
## Output inactive

## Input Hi, sorry to bother you, what did the test record for `COc1ccc(S(=O)(=O)c2c[nH]c(=S)[nH]c2=O)cc1Cl` ?
## Output inactive

## Input Hi, sorry to bother you, what did the test record for Cc1ccc(NC(=O)C(c2ccccc2)N2CCN(C(=O)c3ccco3)CC2)cc1 (centres undefined) ?
## Output inactive

## Input Hi, sorry to bother you, what did the test record for `NS(=O)(=O)c1ccc(NC(=O)COC(=O)c2c3c(nc4ccccc24)/C(=C\c2ccc4c(c2)OCO4)CCC3)cc1` ?
## Output inactive

## Input Hi, sorry to bother you, what did the test record for `O=C(CN1CCN(c2cccc(Cl)c2)CC1)Nc1ccc(S(=O)(=O)N2CCOCC2)cc1` ?
## Output inactive

## Input Hi, sorry to bother you, what did the test record for CCOC(=O)C1CCCN(C(=O)c2ccc(CS(=O)(=O)c3ccc(Br)cc3)o2)C1 (centres undefined) ?
## Output inactive

## Input Hi, sorry to bother you, what did the test record for `Brc1ccc(/C=N/N2CCN(C3c4ccccc4-c4ccccc43)CC2)s1` ?
## Output inactive

----------
target: Insulin-degrading enzyme (Homo sapiens); experiment: human IDE activators in live cells, primary screen, fluorescence polarization, HEK cells, FAbeta-B substrate (AID 493087); settings: FAbeta-B cleavage, at 5.96 µM, active compounds read high, 0% vehicle, 100% cell-free pure enzyme wells
The whole screen tested about 340,000 compounds, of which about 240 (0.071%) were called active. What follows is part of a selection rich in actives, with near analogues and random picks from the rest.
The following molecules are listed with their measured activation values.
Provide only the numeric value, understood in %.

{"molecule": "O=C(CCC(=O)N1CCN(S(=O)(=O)c2ccc(Cl)cc2)CC1)NCc1cccc(C(F)(F)F)c1", "result.unit": "%", "activation": 2.14}
{"molecule": "CCOC(=O)C1(C(F)(F)F)N=C(N(C)C)OC(N(C)C)=N1", "result.unit": "%", "activation": 8.14}

Consider the additional molecule presented here.
## Input Note down activation recorded for `Cc1cc(=O)oc(C)c1C(=O)NCCN(C)Cc1ccccc1`
## Output -4.58

----------
target: Insulin-degrading enzyme (Homo sapiens) (UniProt P14735); experiment: human IDE activators in live cells, primary screen, fluorescence polarization, HEK cells, FAbeta-B substrate (AID 493087); conditions: FAbeta-B cleavage, at 5.96 µM, active compounds read high, 0% vehicle, 100% cell-free pure enzyme wells
Hit rate of the full screen: of about 340,000 compounds, about 240 (0.071%) were called active. The full list was thinned out, with actives kept by preference.
parameter: activation (%)
Provide only the numeric value, understood in %.

{"molecule": "COc1ccc(-c2oc3ncn(Cc4ccco4)c(=N)c3c2-c2ccc(OC)cc2)cc1", "reported.value": 5.41}
{"molecule": "CNC(=O)NC(=O)C(OC(=O)c1cccc(S(=O)(=O)N2CCCCC2)c1)c1ccccc1 (stereo unspecified)", "reported.value": -3.23}

## Input Find the measured activation of `CN(C)S(=O)(=O)c1ccc(N2CCCC2=O)c([N+](=O)[O-])c1` with Insulin-degrading enzyme (Homo sapiens) (UniProt P14735) as test system.
## Output 5.59

## Input Find the measured activation of O=C(CSc1ncnc2sccc12)NC1CCS(=O)(=O)C1 (stereo unspecified) with Insulin-degrading enzyme (Homo sapiens) (UniProt P14735) as test system.
## Output 6.28

## Input Find the measured activation of `COC(=O)c1c(C)cc(O)c(C)c1O` with Insulin-degrading enzyme (Homo sapiens) (UniProt P14735) as test system.
## Output -0.29

## Input Find the measured activation of `Cc1ccc(-c2nc(COC(=O)c3c(C)noc3C)cs2)cc1` with Insulin-degrading enzyme (Homo sapiens) (UniProt P14735) as test system.
## Output -2.15

## Input Find the measured activation of Cc1ccc(S(=O)(=O)N2CC(C)N(S(C)(=O)=O)C2)cc1 (stereo unspecified) with Insulin-degrading enzyme (Homo sapiens) (UniProt P14735) as test system.
## Output 2.36

## Input Find the measured activation of `NC(=O)COC(=O)c1ccc2c(c1)C(=O)N(Cc1ccco1)C2=O` with Insulin-degrading enzyme (Homo sapiens) (UniProt P14735) as test system.
## Output 1.77

----------
target: Insulin-degrading enzyme (Homo sapiens) (UniProt P14735); test: human IDE activators in live cells, primary screen, fluorescence polarization, HEK cells, FAbeta-B substrate (AID 493087); settings: FAbeta-B cleavage, at 5.96 µM, 0% vehicle, 100% cell-free pure enzyme wells
The campaign covered roughly 340,000 compounds. About 240 (0.071%) were called active.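 Rule for the calls: active = activation above the mean of all tested compounds plus 3 SD, set per screening campaign (cut at about 17% in these data); inactive = the rest.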 The sample holds actives, similar compounds and a random draw of the others, so the mix is not that of the screen.
Choose the fitting class; nothing outside Y = active, N = inactive is accepted.

Reference set, count: 4
{"molecule": "CC(C)[C@@H](C(=O)OCC(=O)c1ccc2c(c1)NC(=O)CO2)N1C(=O)c2ccccc2C1=O", "qualitative.label": "N"}
{"molecule": "CCc1ccc(C(=O)NNC(=O)C2CCN(c3ncnc4sc(C)c(C)c34)CC2)cc1", "qualitative.label": "N"}
{"molecule": "Cc1ccccc1OC(=O)Cn1c(C(F)(F)F)nc2ccccc21", "qualitative.label": "N"}
{"molecule": "O=C(CSc1nc2nccnc2c(=O)n1Cc1cccs1)Nc1ccccc1F", "qualitative.label": "N"}

## Input Hi, sorry to bother you, what did the test record for `Cc1cccc2c1cnn2C(=O)CCC(=O)NC1CCCCC1` ?
## Output N

## Input Hi, sorry to bother you, what did the test record for OC(COc1ccccc1)CN1CCN(c2cccc(Cl)c2)CC1 (stereo unspecified) ?
## Output N

----------
molecular target: Insulin-degrading enzyme (Homo sapiens) (UniProt P14735); assay: human IDE activators in live cells, primary screen, fluorescence polarization, HEK cells, FAbeta-B substrate (AID 493087); conditions: FAbeta-B cleavage, at 5.96 µM, 0% vehicle, 100% cell-free pure enzyme wells
About 240 (0.071%) of roughly 340,000 compounds were called active.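 Rule for the calls: active = activation above the mean of all tested compounds plus 3 SD, set per screening campaign (cut at about 17% in these data); inactive = the rest.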 What follows is part of a selection rich in actives, with near analogues and random picks from the rest.
Choose the fitting class; nothing outside T (active), F (inactive) is accepted.

Reference set, count: 6
{"compound": "CCOC(=O)C1CCCN(S(=O)(=O)c2ccc3c(c2)C(C)(C)C(=O)N3C)C1 (stereo not given)", "qualitative.label": "F"}
{"compound": "Cc1ccc(C(c2nnnn2CS(=O)(=O)c2ccc(C)cc2)N2CCC(C)CC2)cc1 (stereo not given)", "qualitative.label": "F"}
{"compound": "O=C1c2ccccc2C(=O)N1CCC(c1ccccc1)c1ccco1 (stereo not given)", "qualitative.label": "F"}
{"compound": "CCSc1nc(=S)n(CC)c(C)c1C(C)=O", "qualitative.label": "F"}
{"compound": "CCC(Cc1ccccc1)NS(=O)(=O)c1ccc2c(c1)NC(=O)CS2 (stereo not given)", "qualitative.label": "F"}
{"compound": "Cc1c(CN2CCC(CO)(CCOc3ccccc3)CC2)[nH]c2ccc(Cl)cc12", "qualitative.label": "T"}

## Input Hi, sorry to bother you, what did the test record for CCC1CCCCN1C(=S)Nc1ccc(C(C)=O)cc1 (stereo not given) ?
## Output F

## Input Hi, sorry to bother you, what did the test record for `CN1CCN(C(=O)C(=O)c2cn(CC(=O)N3CCCC3)c3ccccc23)CC1` ?
## Output F

## Input Hi, sorry to bother you, what did the test record for CC(=O)N1CCCc2cc(S(=O)(=O)N3CCCC(C(=O)N4CCN(c5cccc(Cl)c5)CC4)C3)ccc21 (stereo not given) ?
## Output F

## Input Hi, sorry to bother you, what did the test record for `CCOC(=O)C1(CCOc2ccccc2)CCN(Cc2cc(OC)cc(OC)c2)CC1` ?
## Output F
